- assayProtocol: yeast display, Sf9 membrane polyspecificity reagent, FACS + sequencing; frameworks hold sequencing errors
measurementKind: polyreactivity (PSR sort gate)

[[record]]
chainsequence = "QVQLVESGGGLVQAGGSLRLRCAASGNTFRVYPMGWYRQAPGKESELVAAITWSGSRTYYADSVKGRFTISRDNAKNTVYFQINSLKPEDTAVYYCAARFVRAAYNYWGLGTQVTVSS"
measurementkind = "polyreactivity (PSR sort gate)"
testresult = "high polyreactivity"

[[record]]
chainsequence = "QVQLVESGGGLVQAGGSLRLSCAASGRTFWGYVMGWYRQAPGKERELVAAISRGDSTYYADSVKGRFTISRDNAKNTVYLQMNSLKPEDTAVYYCAKPGYYVRYGYWGQGTQVTVSS"
measurementkind = "polyreactivity (PSR sort gate)"
testresult = "high polyreactivity"

[[record]]
chainsequence = "QVQLVESGGGLVQAGGSLRLSCAASGSTFGKYAMGWYRQAPGKERELVAAITWSGASTFYADSVKGRFTISRDNAKNTVYLQMNSLKPEDTAVYYCAARSYKSYYIFDYWGQGTQVTVSS"
measurementkind = "polyreactivity (PSR sort gate)"
testresult = "low polyreactivity"

[[record]]
chainsequence = "QVQLVESGGGLVQAGGSLRLSCAASGFIFPRYAMGWYRQAPGKERELVAAISYSGGSTYYADSVKGRFTISRDNAKNTVYLQMNSLKPEDTAVYYCNAYFLSQYQRAYRDDYWGQGTQVTVST"
measurementkind = "polyreactivity (PSR sort gate)"
testresult = "high polyreactivity"

[[record]]
chainsequence = "QVQLVESGGGLVQARGSLRLSCAASGLTVGYNAMGWYRQARVKEWELVGAISSNGGRTYYADSVKGRFTISRDNAKNTVYLQMNSLKPEDTAVYYCNARYTGSSLYYWGQGTQVTVSS"
measurementkind = "polyreactivity (PSR sort gate)"
testresult = "high polyreactivity"


Would you mind listing polyreactivity (PSR sort gate) for each of the following sequences?
1. QVQLVESGGGLVQAGGSRRLSCAASGSIFVSNAMGWDRQAPGKERELVAAISGGCSTYYADSVKGRFTISRDNAKNTVYLQMNSLKPEDTAVYYCNALFDGYAQDLDYDYWGQGTQVTVSS
2. QVQLVESGGGLVQAGGSLRLSCAASGSIYQNAMGWYRQAPGKQRELVAAITSSGGRTYADSVKGRFTISRDNAKNTVYLQMNSLIPEDTAVYYCAKDSTADELNGFDYWGQGTQVTVSS
3. QVQLVESGGGLGHAGGSLRLSCAASGRIYGRNAMGWNRKAQGKERELVAAINSGVSTYYADSVKGRFTISRDNAKNTFYLQMNSLKPEDTAVYYCAKAPQRRYYDFDYWGQGTQVTVSS
4. QVQLVESGGGLVQAGGSLRLSCAASGFTFRVNAMGWYRQAPGKERELVAAISSGGRTYYADSVKGRFTISRDNAKNTVYLQMNSLKPEDTAVYYCNAGRVRHGNDYWGQGTQVTVSS

1: low polyreactivity; 2: low polyreactivity; 3: low polyreactivity; 4: high polyreactivity
